TEST: HEK293-F cell count and viability by flow cytometry after transfection in suspension culture (Example 5)
Type: cell-based, human
Design: concentration or dose not given beside the values
STUDY CONDITIONS: human, HEK293-F cells in suspension culture (shake flasks), AAV2 plasmids, 48 h post-transf
Ends that are not written are not given here.
ENDPOINT NAME: viability at 48 h

Quick note, viability at 48 h for WEARLARALARALARHLARALARALRACEA [RALA] landed at 81.6%

====

TEST: HEK293-F cell count and viability by flow cytometry after transfection in suspension culture (Example 5)
Format: cell-based, human
Design: concentration or dose not given beside the values
STUDY CONDITIONS: human, HEK293-F cells in suspension culture (shake flasks), AAV1 plasmids, 24 h post-transf
Ends that are not written are not given here.
ENDPOINT NAME: viability at 24 h (%)
Write the answer as a number in %, unit excluded.

The sequence listed as WEARLARALARALARHLARALARALRACEA [RALA] has a reported viability at 24 h of 90

====

TEST: HEK293-F cell count and viability by flow cytometry after transfection in suspension culture (Example 5)
Type: cell-based, human
Parameters: concentration or dose not given beside the values
STUDY CONDITIONS: human, HEK293-F cells in suspension culture (shake flasks), AAV1 plasmids, 72 h post-transf
Ends that are not written are not given here.
ENDPOINT NAME: viability at 72 h
Respond with a number, then the unit of measure.

According to the records, this sequence WEARLARALARALARHLARALARALRACEA [RALA] displays viability at 72 h of 83.1%

====

TEST: HEK293-F cell count and viability by flow cytometry after transfection in suspension culture (Example 5)
Format: cell-based, human
Set-up: concentration or dose not given beside the values
STUDY CONDITIONS: human, HEK293-F cells in suspension culture (shake flasks), LV plasmids, 48 h post-transf
Ends that are not written are not given here.
ENDPOINT NAME: viability at 48 h

Reported viability at 48 h for WEARLARALARALARHLARALARALRACEA [RALA] was 92%
